Every entry's value here was drawn from patent US20170184612A1.

- System: peripheral blood mononuclear cells (PBMC), T cells
- method_notes: ELISpot assay, IL-5 release (SFC) after stimulation with a-synuclein epitope pools
- Type: cell-based, human
- assay_context: Patients Summary; PD patients; of donors tested (peptide)
observation_type: IL-g Peptide + (donors positive to the peptide)
Write the number on its own, no unit after it.

Examples with their reported IL-g Peptide + (donors positive to the peptide) follow.
Noted IL-g Peptide + (donors positive to the peptide) for 3521.0059 (AEAAGKTKEG; listed as Homo sapiens) , tested on peripheral blood mononuclear cells (PBMC), T cells: 1

Noted IL-g Peptide + (donors positive to the peptide) for 3521.0018 (MPVDPDNEA; listed as Homo sapiens) , tested on peripheral blood mononuclear cells (PBMC), T cells: 0

Noted IL-g Peptide + (donors positive to the peptide) for 3521.0033 (VLYVGSKTKK; listed as Homo sapiens) , tested on peripheral blood mononuclear cells (PBMC), T cells: 3

Noted IL-g Peptide + (donors positive to the peptide) for 3521.0061 (AATGFVKKDQ; listed as Homo sapiens) , tested on peripheral blood mononuclear cells (PBMC), T cells: 0

Noted IL-g Peptide + (donors positive to the peptide) for 3521.0047 (IAAATGFVKK; listed as Homo sapiens) , tested on peripheral blood mononuclear cells (PBMC), T cells: 0

Noted IL-g Peptide + (donors positive to the peptide) for 3521.0052 (KTKQGVAEAA; listed as Homo sapiens) , tested on peripheral blood mononuclear cells (PBMC), T cells: 0

Noted IL-g Peptide + (donors positive to the peptide) for 3521.0028 (MPSEEGYQDY; listed as Homo sapiens) , tested on peripheral blood mononuclear cells (PBMC), T cells: 0

Noted IL-g Peptide + (donors positive to the peptide) for 3521.0042 (AGKTKEGVLY; listed as Homo sapiens) , tested on peripheral blood mononuclear cells (PBMC), T cells: 0

More entries:
Noted IL-g Peptide + (donors positive to the peptide) for 3521.0074 (VAAAEKTKQGVAEAP; listed as Homo sapiens) , tested on peripheral blood mononuclear cells (PBMC), T cells: 0

Noted IL-g Peptide + (donors positive to the peptide) for 3521.005 (APGKTKEGVL; listed as Homo sapiens) , tested on peripheral blood mononuclear cells (PBMC), T cells: 2

Noted IL-g Peptide + (donors positive to the peptide) for 3521.0067 (KTKEGVVHG; listed as Homo sapiens) , tested on peripheral blood mononuclear cells (PBMC), T cells: 0

Noted IL-g Peptide + (donors positive to the peptide) for 3521.0035 (SIAAATGFVK; listed as Homo sapiens) , tested on peripheral blood mononuclear cells (PBMC), T cells: 1

Noted IL-g Peptide + (donors positive to the peptide) for 3521.0086 (ATVAEKTKEQVTNVG; listed as Homo sapiens) , tested on peripheral blood mononuclear cells (PBMC), T cells: 0

Noted IL-g Peptide + (donors positive to the peptide) for 3521.0036 (AGSIAAATGF; listed as Homo sapiens) , tested on peripheral blood mononuclear cells (PBMC), T cells: 0

Noted IL-g Peptide + (donors positive to the peptide) for 3521.0001 (PVDPDNEAY; listed as Homo sapiens) , tested on peripheral blood mononuclear cells (PBMC), T cells: 0

Noted IL-g Peptide + (donors positive to the peptide) for 3521.0003 (SIAAATGFV; listed as Homo sapiens) , tested on peripheral blood mononuclear cells (PBMC), T cells: 0

Noted IL-g Peptide + (donors positive to the peptide) for 3521.0007 (AAATGFVKK; listed as Homo sapiens) , tested on peripheral blood mononuclear cells (PBMC), T cells: 0

Noted IL-g Peptide + (donors positive to the peptide) for 3521.0012 (KTKQGVAEA; listed as Homo sapiens) , tested on peripheral blood mononuclear cells (PBMC), T cells: 0

Noted IL-g Peptide + (donors positive to the peptide) for 3521.0027 (AYEMPSEEGY; listed as Homo sapiens) , tested on peripheral blood mononuclear cells (PBMC), T cells: 0

Noted IL-g Peptide + (donors positive to the peptide) for 3521.0005 (AVVTGVTAV; listed as Homo sapiens) , tested on peripheral blood mononuclear cells (PBMC), T cells: 0

Noted IL-g Peptide + (donors positive to the peptide) for 3521.0029 (NVGGAVVTGV; listed as Homo sapiens) , tested on peripheral blood mononuclear cells (PBMC), T cells: 0

Noted IL-g Peptide + (donors positive to the peptide) for 3521.0009 (LYVGSKTKK; listed as Homo sapiens) , tested on peripheral blood mononuclear cells (PBMC), T cells: 1

###

Below: a set of entries, each annotated with reported IFNg Response Frequency.
- System: peripheral blood mononuclear cells (PBMC), T cells
- method_notes: ELISpot assay, gamma-interferon release (SFC) after stimulation with a-synuclein epitope pools
- Assay type: cell-based, human
- assay_context: Patients Summary; Phospho pool peptides
Only the number, expressed in %, is required.

Examples with their reported IFNg Response Frequency follow.
Noted IFNg Response Frequency for 3521.0023 (YEMPSEEGY; listed as Homo sapiens) , tested on peripheral blood mononuclear cells (PBMC), T cells: 30

Noted IFNg Response Frequency for 3521.0058 (SEEGYQDYEP; listed as Homo sapiens) , tested on peripheral blood mononuclear cells (PBMC), T cells: 20

Noted IFNg Response Frequency for 3521.0027 (AYEMPSEEGY; listed as Homo sapiens) , tested on peripheral blood mononuclear cells (PBMC), T cells: 20

Noted IFNg Response Frequency for 3521.0002 (PSEEGYQDY; listed as Homo sapiens) , tested on peripheral blood mononuclear cells (PBMC), T cells: 10

More entries:
Noted IFNg Response Frequency for 3521.0038 (EMPSEEGYQD; listed as Homo sapiens) , tested on peripheral blood mononuclear cells (PBMC), T cells: 30

Noted IFNg Response Frequency for 3521.004 (DNEAYEMPSE; listed as Homo sapiens) , tested on peripheral blood mononuclear cells (PBMC), T cells: 20

Noted IFNg Response Frequency for 3521.0028 (MPSEEGYQDY; listed as Homo sapiens) , tested on peripheral blood mononuclear cells (PBMC), T cells: 30

Noted IFNg Response Frequency for 3521.0026 (MPSEEGYQD; listed as Homo sapiens) , tested on peripheral blood mononuclear cells (PBMC), T cells: 40

Noted IFNg Response Frequency for 3521.0056 (YEMPSEEGYQ; listed as Homo sapiens) , tested on peripheral blood mononuclear cells (PBMC), T cells: 0

###

- Tested on: peripheral blood mononuclear cells (PBMC), T cells
- method_notes: ELISpot assay, IL-5 release (SFC) after stimulation with a-synuclein epitope pools
- Format: cell-based, human
- assay_context: single peptide; second 'Pool Stimulated' section (from r296), 12 donors tested
Below: a set of entries, each annotated with reported IL-g Total SFC.
Be sure to follow the number with its unit.

Examples with their reported IL-g Total SFC follow.
IL-g Total SFC for 3521.0064 (GVVHGVATV; listed as Homo sapiens) is 75 SFC

IL-g Total SFC for 3521.0021 (PGKTKEGVL; listed as Homo sapiens) is 0 SFC

IL-g Total SFC for 3521.003 (GSIAAATGFV; listed as Homo sapiens) is 0 SFC

IL-g Total SFC for 3521.0086 (ATVAEKTKEQVTNVG; listed as Homo sapiens) is 0 SFC

IL-g Total SFC for 3521.0029 (NVGGAVVTGV; listed as Homo sapiens) is 0 SFC

Now examine the next entry.
IL-g Total SFC for 3521.0059 (AEAAGKTKEG; listed as Homo sapiens) is 0 SFC

###

- Test system: peripheral blood mononuclear cells (PBMC), T cells
- method_notes: ELISpot assay, gamma-interferon release (SFC) after stimulation with a-synuclein epitope pools
- Type: cell-based, human
- assay_context: Patients Summary; PD patients; of donors tested (peptide)
observation_type: IFNg Peptide + (donors positive to the peptide)

Examples with their reported IFNg Peptide + (donors positive to the peptide) follow.
IFNg Peptide + (donors positive to the peptide) for 3521.0068 (GVAEAPGKTK; listed as Homo sapiens) is 0

IFNg Peptide + (donors positive to the peptide) for 3521.007 (GVVAAAEKTK; listed as Homo sapiens) is 2

IFNg Peptide + (donors positive to the peptide) for 3521.0062 (KTKKGVVHG; listed as Homo sapiens) is 1

IFNg Peptide + (donors positive to the peptide) for 3521.0079 (KGVVHGVATVAEKTK; listed as Homo sapiens) is 0

IFNg Peptide + (donors positive to the peptide) for 3521.0047 (IAAATGFVKK; listed as Homo sapiens) is 0

IFNg Peptide + (donors positive to the peptide) for 3521.0045 (KTKKGVVHGV; listed as Homo sapiens) is 1

IFNg Peptide + (donors positive to the peptide) for 3521.0024 (DPDNEAYEM; listed as Homo sapiens) is 0

IFNg Peptide + (donors positive to the peptide) for 3521.0074 (VAAAEKTKQGVAEAP; listed as Homo sapiens) is 1

More entries:
IFNg Peptide + (donors positive to the peptide) for 3521.0057 (NEEGAPQEGI; listed as Homo sapiens) is 0

IFNg Peptide + (donors positive to the peptide) for 3521.004 (DNEAYEMPSE; listed as Homo sapiens) is 0
